- Target Or System: human cardiac sodium channel, SCN5A (Nav1.5) (Homo sapiens)
- Sequence (Q14524 whole entry): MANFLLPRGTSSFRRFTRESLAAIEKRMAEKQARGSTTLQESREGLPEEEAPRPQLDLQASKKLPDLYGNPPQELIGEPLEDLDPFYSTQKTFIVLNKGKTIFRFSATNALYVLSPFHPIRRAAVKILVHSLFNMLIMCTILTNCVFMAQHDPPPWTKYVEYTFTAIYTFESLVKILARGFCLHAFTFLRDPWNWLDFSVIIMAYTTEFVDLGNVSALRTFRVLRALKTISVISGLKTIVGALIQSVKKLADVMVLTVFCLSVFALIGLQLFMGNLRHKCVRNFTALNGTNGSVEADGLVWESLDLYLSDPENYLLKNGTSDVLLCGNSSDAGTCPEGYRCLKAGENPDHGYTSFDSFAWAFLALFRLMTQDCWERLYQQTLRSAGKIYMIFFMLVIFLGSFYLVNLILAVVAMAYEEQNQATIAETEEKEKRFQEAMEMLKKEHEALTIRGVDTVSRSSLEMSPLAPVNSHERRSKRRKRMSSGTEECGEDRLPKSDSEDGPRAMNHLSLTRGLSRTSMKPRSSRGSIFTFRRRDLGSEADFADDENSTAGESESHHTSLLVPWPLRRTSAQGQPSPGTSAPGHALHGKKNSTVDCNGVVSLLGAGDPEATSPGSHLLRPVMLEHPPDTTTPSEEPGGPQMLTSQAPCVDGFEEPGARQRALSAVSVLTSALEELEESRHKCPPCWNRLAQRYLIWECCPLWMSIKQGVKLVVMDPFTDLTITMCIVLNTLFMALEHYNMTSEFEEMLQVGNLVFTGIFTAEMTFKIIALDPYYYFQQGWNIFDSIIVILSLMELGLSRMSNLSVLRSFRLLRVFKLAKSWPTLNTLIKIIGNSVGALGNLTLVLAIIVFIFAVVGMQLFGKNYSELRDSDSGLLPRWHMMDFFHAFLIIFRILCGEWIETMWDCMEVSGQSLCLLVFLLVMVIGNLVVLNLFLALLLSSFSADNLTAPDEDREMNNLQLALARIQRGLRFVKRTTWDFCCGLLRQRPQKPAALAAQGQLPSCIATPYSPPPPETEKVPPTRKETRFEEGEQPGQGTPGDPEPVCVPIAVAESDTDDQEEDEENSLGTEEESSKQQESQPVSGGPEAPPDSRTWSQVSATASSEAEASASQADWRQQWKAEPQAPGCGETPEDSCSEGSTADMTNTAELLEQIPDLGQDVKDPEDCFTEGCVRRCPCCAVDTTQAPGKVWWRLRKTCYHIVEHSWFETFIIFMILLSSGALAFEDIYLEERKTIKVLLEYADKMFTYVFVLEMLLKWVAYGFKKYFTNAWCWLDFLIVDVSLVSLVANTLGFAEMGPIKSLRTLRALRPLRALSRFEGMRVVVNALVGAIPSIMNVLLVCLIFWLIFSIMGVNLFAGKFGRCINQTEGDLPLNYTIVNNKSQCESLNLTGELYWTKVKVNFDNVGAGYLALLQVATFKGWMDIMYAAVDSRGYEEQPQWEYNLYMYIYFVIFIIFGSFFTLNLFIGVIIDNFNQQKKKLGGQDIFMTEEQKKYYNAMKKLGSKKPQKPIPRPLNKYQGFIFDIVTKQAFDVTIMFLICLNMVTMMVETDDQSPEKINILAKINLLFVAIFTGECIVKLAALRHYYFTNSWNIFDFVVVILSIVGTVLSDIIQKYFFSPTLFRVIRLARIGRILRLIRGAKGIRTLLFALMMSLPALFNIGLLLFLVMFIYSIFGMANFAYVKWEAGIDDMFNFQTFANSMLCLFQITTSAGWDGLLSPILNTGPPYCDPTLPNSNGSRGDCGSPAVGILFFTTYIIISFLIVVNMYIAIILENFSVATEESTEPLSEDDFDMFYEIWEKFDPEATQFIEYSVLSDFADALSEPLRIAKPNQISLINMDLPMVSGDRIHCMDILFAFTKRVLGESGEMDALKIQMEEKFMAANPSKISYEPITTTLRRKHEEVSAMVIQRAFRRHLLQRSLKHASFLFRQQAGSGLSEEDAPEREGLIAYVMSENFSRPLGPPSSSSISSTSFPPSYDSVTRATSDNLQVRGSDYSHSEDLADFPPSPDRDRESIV
- Assay: Sodium channel patch clamp (whole-cell, HEK-293)
- Type: cell-based
- Test Context: HEK-293 cells expressing human cardiac sodium channel SCN5A, 30,000 nM, read-out: Na+ channel patch clamp (% inhibition)
Measured Endpoint: inhibition at 30000 nM (%)
Use % as the unit, but write only the number.

CC(=O)N[C@@H]1C[C@H](N(C)C(C)C)CC[C@@H]1N1CC[C@H](NC(=O)c2cccc(C(C)(C)C)n2)C1=O    6
CC(=O)N[C@@H]1C[C@H](N(C)C(C)C)CC[C@@H]1N1CC[C@H](Nc2ncnc3cnc(C(C)(C)C)nc23)C1=O    13
CC(=O)N[C@@H]1C[C@H](N(C)C)CC[C@@H]1N1CC[C@H](Nc2ncnc3ccc(C(F)(F)F)cc23)C1=O    11
CCC(=O)N[C@@H]1C[C@H](N)CC[C@@H]1N1CC[C@H](Nc2ncnc3ccc(C(F)(F)F)cc23)C1=O    35
CC(C)N(C)[C@@H]1CC[C@H](N2CC[C@H](Nc3ncnc4ccc(C(F)(F)F)cc34)C2=O)[C@H](NC=O)C1    10

Lab note: next compound to report on.
# inhibition at 30000 nM measured on human cardiac sodium channel, SCN5A (Nav1.5) (Homo sapiens) for item CN[C@@H]1CC[C@H](N2CC[C@H](Nc3ncnc4ccc(C(F)(F)F)cc34)C2=O)[C@H](NC(C)=O)C1 = 3
